B1: TPR 5TU (parent)
chain: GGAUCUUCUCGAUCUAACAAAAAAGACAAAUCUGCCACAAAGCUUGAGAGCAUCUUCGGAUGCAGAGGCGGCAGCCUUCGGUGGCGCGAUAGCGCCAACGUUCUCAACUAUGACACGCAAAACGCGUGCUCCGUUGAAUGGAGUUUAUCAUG

variants of: B1; experiment: polymerase ribozyme fitness, log enrichment relative to wild type (log ratio); higher = more active; in vitro selection for triplet polymerase activity
Variants at the floor of the assay were thinned out.
Provide the recorded polymerase ribozyme fitness (log ratio) for the entries that follow.
Give bare numbers.

Record excerpt, results attached:
In [3]: df
Out[3]:
            variant_key     val
0  C57U G59U C93U G136U   -2.96
1           C116A G140U   -4.02
2           C114U U139C   -3.63
3             U61A G92C   -3.57
4  A22U C36U U78C U146C   -3.63
5              A3U U82G  -0.249

The following variants each have a reported value; give each one's polymerase ribozyme fitness (log ratio).
1. C27U U55A
2. C63U A150U
3. A37C C87U
4. U134A G140A
5. G88U
6. G84C
7. C38G C51U
8. C5G C93A

Result ::
-0.901
0.854
-0.492
-3.58
-3.89
-1.76
-0.547
-2.55

The following variants each have a reported value; give each one's polymerase ribozyme fitness (log ratio).
1. A49U G59A C85A
2. A26C G86A C99U G141C
3. U6A G83C A89U G136U A137G
4. C14G C75A G84U

Result ::
1. -3.41
2. -3.84
3. -3.78
4. -4.14

The following variants each have a reported value; give each one's polymerase ribozyme fitness (log ratio).
1. A52C G59A
2. C93U A122U
3. G46U G83A G143C
4. A73G C96U
5. C18U C108U

Result ::
1. -1.18
2. -0.696
3. -4.16
4. -0.103
5. -3.57

The measured values listed here are drawn from the RNAGym collection of RNA variant scans (doi:10.1073/pnas.2313332121).
